System: BCR-FMS-BaF3 cells
assay-remarks: CellTiter-Glo luminescent cell viability / cell proliferation assay
Format: cell-based
test-context: 72 h; BCR-FMS-BaF3, 3 days incubation, mean of N = 1 and N = 2; read-out: IC50 (nM) Mean value ± SD
measured-parameter: IC50 (nM)

smiles_input=CNC(=O)c1nccc2c(-c3cnc(Nc4ccc(OC5CC5)nc4)cc3C)c[nH]c12.Cl observed_value=2.46

----------
Test system: BCR-FMS-BaF3 cells
assay-remarks: CellTiter-Glo luminescent cell viability / cell proliferation assay
Type: cell-based
test-context: 72 h; BCR-FMS-BaF3, 3 days incubation, replicate N = 1; read-out: IC50 (nM) N = 1
measured-parameter: IC50

smiles_input=CNC(=O)c1nccc2c(-c3cnc(Nc4ccc(OC5CC5)nc4)cc3C)c[nH]c12.Cl observed_value="2.46 nM"
